Some compounds, each annotated with its measured growth.
- Test system: A549/ATCC NSCLC
- measurementDescription: NCI-60 one-dose screen, 48 h (100 = growth as untreated, 0 = no growth, -100 = all killed)
- conditionDescription: 10 µM
About 83,000 compounds went through this panel and 20% of them were active in at least one assay; those are over-represented in the sample as a whole.
measurementLabel: growth (%)

CC(=O)OCC(OC(C)=O)C(OC(C)=O)C(OC(C)=O)C(OC(C)=O)C(/C=N/Nc1ccccc1)=N/Nc1ccccc1 (centres undefined)	60.9
CN1CCN(CCCN2c3ccccc3Sc3ccc(C(F)(F)F)cc32)CC1	59.4
CO[C@H](C(=O)[C@@H](O)[C@@H](C)O)[C@@H]1Cc2cc3cc(OC4CC(OC5CC(O)C(O)C(C)O5)C(O)C(C)O4)c(C)c(O)c3c(O)c2C(=O)[C@H]1OC1CC(OC2CC(OC3CC(C)(O)C(O)C(C)O3)C(O)C(C)O2)C(O)C(C)O1 (some centres undefined)	2.67
CSC1SCC2C(=O)N(C)C(C(C)C)C(=O)OCC(NC(=O)c3cnc4ccccc4n3)C(=O)NC(C)C(=O)N(C)C1C(=O)N(C)C(C(C)C)C(=O)OCC(NC(=O)c1cnc3ccccc3n1)C(=O)NC(C)C(=O)N2C (centres undefined)	-15.2
NC1=C(Cl)C(=O)c2ccccc2C1=O	45
COc1cccc2c1C(=O)c1c(O)c3c(c(O)c1C2=O)C[C@@](O)(C(=O)CO)C[C@@H]3OC1CC(N)C(O)C(C)O1 (some centres undefined)	-30.5
CC(C)(C)CC(C)(C)c1ccc(OCCO)cc1	96.4
NNc1c2ccccc2nc2ccccc12	23.6
O=C1NC(=O)c2cc([N+](=O)[O-])ccc21	107
Cc1nc(N=C(N)N)nc2ccc3ccccc3c12	20.6
O=C(/C=C/c1ccccn1)c1ccccc1	76.3
CC1=CC(C)=Nc2ccc(Cl)cc2N1	114
CS(=O)(=O)OC1CC(n2ccc(=O)[nH]c2=O)OC1COC(c1ccccc1)(c1ccccc1)c1ccccc1 (centres undefined)	101
Oc1ccc(N=Nc2ccccn2)c(O)c1	17.5
CC(=O)Nc1cc(C)ccc1C	100
COc1c(O)cc2oc3cc(O)c(CC=C(C)C)c(O)c3c(=O)c2c1CC=C(C)C	54.3
COC(=O)C1C(O)C(C)C(O)C(C)C=C(C)C2=C3C(=C(C)C(=O)c4c(O)c(c(C)c(OC(C)=O)c43)NC(=O)C(C)=C/C=C\C(C)C(O)C(C)C1O)OCO2 (centres undefined)	112
COc1ccc(CC(=O)c2ccc(O)cc2O)cc1	109
CCC(C)(C)c1cc(O)c(C(C)(C)CC)cc1O	49.9
